# method description: viability loss with induced miR-34 in A549 – imaging, A549 dox-inducible miR-34, nuclei and caspase counts, primary screen (AID 1347080); further: test concentration not given here
# assay context: A549 miR-34 inducible, Hoechst nuclei count, 48 h; measured here: total cells with miR-34 induction; stronger effect = lower value
The reader will find reported cell count values listed item by item below.
quantity: cell count

compound=Cn1nc(-c2cccnc2)c2[nH]c(-c3ccc4c(c3)OCCO4)nc21 quantity="cell count" readout_number=5270
compound="CN1CCCC1CCO[C@](C)(c1ccccc1)c1ccc(Cl)cc1 (stereo partly specified)" quantity="cell count" readout_number=7530
compound=CN(Cc1nc2ccc(Cl)cc2[nH]1)C(=O)c1n[nH]c2ccccc12 quantity="cell count" readout_number=6230
compound=O=C(O)Cc1ccc(O)c([N+](=O)[O-])c1 quantity="cell count" readout_number=8450
compound=CN(C)CCSSCCNC(=O)C1CCN(C(=O)CSc2ccc(Cl)cc2)CC1 quantity="cell count" readout_number=7870
compound=COC(=O)C1=CO[C@@H](C)[C@H]2CN3CCc4c([nH]c5ccccc45)[C@@H]3C[C@H]12 quantity="cell count" readout_number=5880

Values from PubChem BioAssay
